All figures here come from the DeepSol protein solubility set.

Experiment: soluble on expression in E. coli; label from the status in PepcDB or PDB records
measured-property: soluble on expression in E. coli

{"sequence-string": "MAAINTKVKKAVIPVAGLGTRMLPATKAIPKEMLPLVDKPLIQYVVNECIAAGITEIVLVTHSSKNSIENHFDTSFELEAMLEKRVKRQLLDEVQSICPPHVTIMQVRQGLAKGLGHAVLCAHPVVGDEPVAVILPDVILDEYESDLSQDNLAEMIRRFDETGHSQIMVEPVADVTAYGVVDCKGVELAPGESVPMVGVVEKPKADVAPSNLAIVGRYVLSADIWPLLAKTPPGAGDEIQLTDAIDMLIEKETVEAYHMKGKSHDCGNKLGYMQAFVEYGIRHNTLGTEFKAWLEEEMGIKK", "endpoint-value": "soluble"}
{"sequence-string": "MHRRSIINHSRPDKLKRGMHVEIASNVINDLQFFDQQIRWAKADLVQQVSRNRLNRARTYRGYLNQCLPHELVADIQRAVIKSINAISLINLEHHHHHH", "endpoint-value": "not soluble"}
{"sequence-string": "MKIEFFHDVICSFCFPMSDRMHEIQQEFPEIELIHRSFALGWSANDFETMFGSRAAVKEEVLTHWVHANQNDSKHRFNIEGMRKQRFDFPTSKNVLLAAKAAGYIGNQDTYWLLFDKLQEGLFVRSLNIEEPEVIEKLVKETTIDFALWKEAVASEAVWTAVQEDFALASAYGLQGVPALIINQKYLINGAVPKQQISQTIQKILAEEKQQQPLVSLTPSSEESASCEFKEGTWTCH", "endpoint-value": "not soluble"}
{"sequence-string": "MKKEPKGAKNRIVIAKDEKNVLTCTSEGFEYTPDIVKNVYGKSSRPALEDWFLTELDFFRRYYPGYEVFTLGSSCVFGEKFVNYLTICEFDIDSTYAFDCLKKALRESDQAIRRKLSAMWKWDIAARKDWSIVFMVGHMDFAYFLQHRKEFQEDAHKRFMSTFTTAETKITSRDYKVMHDGAILPFDETALSPEDRFIFENYQKIKFETTPL", "endpoint-value": "soluble"}
{"sequence-string": "MSLTIKVFSPKYPTELEEFYAERIADNPLGFIQRLDLLPSISGFVQKLREHGGEFFEMREGNKLIGICGLNPINQTEAELCKFHINSAYQSQGLGQKLYESVEKYAFIKGYTKISLHVSKSQIKACNLYQKLGFVHIKEEDCVVELGEETLIFPTLFMEKILSEGHHHHHH", "endpoint-value": "soluble"}
{"sequence-string": "MGSDKIHHHHHHMTVKAKRFRIGVEGATTDGREIQREWLVQMAASYNPTVYTALINLEHIKSYLPESTFNRYGRVTGLVAEEIQDGPLAGKMALYADIEPTDALVELVKKGQKLFTSMEVSTKFADTGKAYLVGLGATDDPASLGTEMLAFSASAAHNPLANRKQNPENLFSEAVETLIELEEVQDEKPSLFARVTALFTKKEQTDEARFSDVHKAVELVASEQQNLSERTDKSLSEQDKRLSELESSLQEQLAAFAELEQKLSSEDSRKDYRQRAPGGDAPAGTLTNC", "endpoint-value": "not soluble"}

Here is another sequence to look at.
Just so you know, measured soluble on expression in E. coli for MKSEANLRGMIDIEFYYHTCEAKKYFRNEVINYLVNLKSNVTIEMTRYWTEGADVVNHLFFCNIHGIGIPNLHGVLFQVKSYRYYSGFLLSTASQSFCG came out at not soluble

---

Test: soluble on expression in E. coli; label from the status in PepcDB or PDB records
measured-property: soluble on expression in E. coli

Solved entries (count: 4):
{"sequence-string": "MSYQPTSLTVASYNLRNANGSDSARGDGWGQRYPVIAQMVQYHDFDIFGTQECFLHQLKDMKEALPGYDYIGVGRDDGKDKGEHSAIFYRTDKFDIVEKGDFWLSETPDVPSKGWDAVLPRICSWGHFKCKDTGFEFLFFNLHMDHIGKKARVESAFLVQEKMKELGRGKNLPAILTGDFNVDQTHQSYDAFVSKGVLCDSYEKCDYRYALNGTFNNFDPNSFTESRIDHIFVSPSFHVKRYGVLTDTYRSVRENSKKEDVRDCPEEITIKAYEARTPSDHFPVKVELVFDLEHHHHHH", "soluble on expression in E. coli": "soluble"}
{"sequence-string": "MRDTRGGDQGGGLEAQGGAEARNALPPETIVLILPWEPGSRRQPLKAGQVILKWGGYTMPYLVGPKGQVVIAKEIRERLGIRPGWRVIQRLVDDHVELYFLPPPHKASLKGLLRDKIRGTVSEEAWAEARERAWRASWSEEGEG", "soluble on expression in E. coli": "soluble"}
{"sequence-string": "MGLSDWELAAARAAIARGLDEDLRYGPDVTTLATVPASATTTASLVTREAGVVAGLDVALLTLNEVLGTNGYRVLDRVEDGARVPPGEALMTLEAQTRGLLTAERTMLNLVGHLSGIATATAAWVDAVRGTKAKIRDTRKTLPGLRALQKYAVRTGGGVNHRLGLGDAALIKDNHVAAAGSVVDALRAVRNAAPDLPCEVEVDSLEQLDAVLPEKPELILLDNFAVWQTQTAVQRRDSRAPTVMLESSGGLSLQTAATYAETGVDYLAVGALTHSVRVLDIGLDM", "soluble on expression in E. coli": "soluble"}
{"sequence-string": "MTKNKMEAKIDELINNDPVWSSQNESLISKPYNHILLKPGKNFRLNLIVQINRVMNLPKDQLAIVSQIVELLHNSSLLIDDIEDNAPLRRGQTTSHLIFGVPSTINTANYMYFRAMQLVSQLTTKEPLYHNLITIFNEELINLHRGQGLDIYWRDFLPEIIPTQEMYLNMVMNKTGGLFRLTLRLMEALSPSSHHGHSLVPFINLLGIIYQIRDDYLNLKDFQMSSEKGFAEDITEGKLSFPIVHALNFTKTKGQTEQHNEILRILLLRTSDKDIKLKLIQILEFDTNSLAYTKNFINQLVNMIKNDNENKYLPDLASHSDTATNLHDELLYIIDHLSEL", "soluble on expression in E. coli": "soluble"}

Switching to the query record.
The sequence listed as MTETELSERLRTWLSQDNERMRALELVLQCAQVHDMPQWCIAAGFVRNLVWDKLHGFDRQPLNDIDLIYYCPLDARPERDWAIEACLRACAPELPWSVKNQARMHLKNHDNPYQSSSDAMAYWPEMETAVGVSLNPTLKTSASVIENLQIVAPFGLASLLALTLTRNPRRSLAVFEQRIIAKGWLSQYPQLVLAN has a reported soluble on expression in E. coli of soluble

---

Assay: soluble on expression in E. coli; label from the status in PepcDB or PDB records

{"sequence-string": "MGSDKIHHHHHHMISSITSSIPKDVLYAAAEWYATLYDEDCSENDRQTWQRWLHEDETHRLAWQQVEQIHARFHAVDSQLASSVLSRRGEERRRMLKLLVIASVTGGVGFSLPWDSYAADYRTGTGETRELSIETGMTVWLNTDSALNQQGNPALSQPLTFQLIKGELMLDNQTAHAARLTTPHGDLAAAAYSCQLALRYTSAHSVLSVFSGEVLLQTAVPAAQRVTAGQQVIFTRDRCSEPAPVENFRQSWRKGLLVADSMPLGQLINEISRYHNGYFHVDSAVTNLRISGVFPLHETDRLLDAIVRTLPVKVSRRFSWWVDIRPS", "soluble on expression in E. coli": "not soluble"}
{"sequence-string": "MQRFLDSISAATQAKSPAEHETLVAMADLYAIITCVEYLERAWRANAVSDEDYTRNCSRLIAQFRATRQLVMDDVPSVISFLEEYHLAARAAMNRLQVGVPATVEHANSSDETRRRNFTAAAIQATEAFLTFRDALELGERSVDRLLPYLREILLVLGRMGAVFGTADGDATVQRERIVQWVRRLDAMHAYEQITEEDKRQLAHDVDTLYDTFRRRVGELEM", "soluble on expression in E. coli": "not soluble"}
{"sequence-string": "MGSDKIHHHHHHMSDAMHTLLTASPLLDLHHPEIEALVARRDWLTLSPYDRIGAVYDFVRNEIAFGYNEGDELPASRVLADGIGQCNTKSTLLMALLRAVGIPCRFHGFTIDKPLQKGAITGLAYWLAPQRIIHSWVEVSLEGRWIALEGFILDAPYLASLQRRFPQARRFCGYGAATPDLSAPGVDWRGQDAYIQKEGIADDFGVFDSPDAFYARHGSNLSGVKRWLYERVIRHRMNRNVARVRASKW", "soluble on expression in E. coli": "not soluble"}

---

Assay: soluble on expression in E. coli; label from the status in PepcDB or PDB records
measured-property: soluble on expression in E. coli

{"sequence-string": "MSLYQRCFDNASETLFVAGKTPRLSRFAFSDDPKWESGHHVHDNETELIYVKKGVARFTIDSSLYVAHADDIVVIERGRLHAVASDVNDPATTCTCALYGFQFQGAEENQLLQPHSCPVIAAGQGKEVIKTLFNELSVILPQSKNSQTSSLWDAFAYTLAILYYENFKNAYRSEQGYIKKDVLIKDILFYLNNNYREKITLEQLSKKFRASVSYICHEFTKEYRISPINYVIQRRMTEAKWSLTNTELSQAEISWRVGYENVDHFAKLFLRHVGCSPSDYRRQFKNCFAEQEILSEFPQPVSLVGEGGSHHHHHH", "measured-property": "soluble on expression in E. coli", "endpoint-value": "soluble"}
{"sequence-string": "MSRVAPRDSAAQAASAVAESVRYQGRKASRQGSEQRRQAILDAAMRLIVRDGVRAVRHRAVAAEAQVPLSATTYYFKDIDDLITDTFALFVERNAEALSAFWSSVEGDLQEMAAVLADDPGARGSLVERIVELAVQYVQVQLTERREHLLAEQAFRQEALLNPRLRELADAHQRILSLGAVHFFQVLGSGQPEQDAKVLTSIILQMEYQGLVDGVEQLAVDEMRAILRRYLNLVMGL", "measured-property": "soluble on expression in E. coli", "endpoint-value": "soluble"}
{"sequence-string": "RDSGTVWGALGHGINLNIPNFQMTDDIDEVRWERGSTLVAEFKRKMKPFLKSGAFEILANGDLKIKNLTRDDSGTYNVTVYSTNGTRILDKALDLRILE", "measured-property": "soluble on expression in E. coli", "endpoint-value": "soluble"}
